- system_under_test: full-length FLAG-tagged B-Raf(V600E) (Homo sapiens (Human), UniProt P15056, V600E)
- Sequence (P15056 whole entry V600E): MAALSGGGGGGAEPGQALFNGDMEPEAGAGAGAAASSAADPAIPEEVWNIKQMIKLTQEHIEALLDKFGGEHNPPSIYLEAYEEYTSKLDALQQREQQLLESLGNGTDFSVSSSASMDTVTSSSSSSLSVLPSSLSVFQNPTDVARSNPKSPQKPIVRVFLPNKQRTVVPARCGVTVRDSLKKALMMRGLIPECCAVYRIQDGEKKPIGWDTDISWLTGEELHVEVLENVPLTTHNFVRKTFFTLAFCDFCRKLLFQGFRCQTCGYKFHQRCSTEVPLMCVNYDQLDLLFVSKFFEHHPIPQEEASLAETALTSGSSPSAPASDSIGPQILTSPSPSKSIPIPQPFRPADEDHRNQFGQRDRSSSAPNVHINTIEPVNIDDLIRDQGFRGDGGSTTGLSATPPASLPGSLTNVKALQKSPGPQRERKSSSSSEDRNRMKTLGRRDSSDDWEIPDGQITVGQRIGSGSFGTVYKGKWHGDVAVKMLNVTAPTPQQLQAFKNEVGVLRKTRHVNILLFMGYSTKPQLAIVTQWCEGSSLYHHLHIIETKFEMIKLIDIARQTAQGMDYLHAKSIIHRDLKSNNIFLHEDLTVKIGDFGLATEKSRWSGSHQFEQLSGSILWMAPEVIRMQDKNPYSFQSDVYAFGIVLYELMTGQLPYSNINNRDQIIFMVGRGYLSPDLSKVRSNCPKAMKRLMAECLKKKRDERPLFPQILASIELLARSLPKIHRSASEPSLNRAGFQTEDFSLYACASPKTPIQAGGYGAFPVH
- measurement_description: BRAF V600E enzyme assay (TR-FRET competitive displacement of fluorescent tracer)
- Format: binding
- condition_details: averaged IC50; 60 min at ambient temperature; 11-point dosing, top dose 10 μM
experimental_endpoint: IC50
Put your answer as a value accompanied by its unit after it.

>  <compound>
Cc1c(Nc2cc(F)cc(NS(=O)(=O)CCCF)c2Cl)ccc2ncn(C)c(=O)c12 [Example 44]

>  <experimental_endpoint>
IC50

>  <result>
6.05 nM

$$$$
>  <compound>
Cc1c(Nc2c(F)ccc(NS(=O)(=O)N3CC[C@@H](F)C3)c2Cl)ccc2ncn(C)c(=O)c12 [Example 22]

>  <experimental_endpoint>
IC50

>  <result>
13.7 nM

$$$$
>  <compound>
CCCS(=O)(=O)Nc1ncc(F)c(Oc2ccc3ncn(C)c(=O)c3c2C)c1F [Example 62]

>  <experimental_endpoint>
IC50

>  <result>
15.8 nM

$$$$
>  <compound>
CCCS(=O)(=O)Nc1ccc(F)c(Nc2ccc3ncn(C)c(=O)c3c2C)c1F [Example 1]

>  <experimental_endpoint>
IC50

>  <result>
42.7 nM

$$$$

From here, focus on the item given below.
Consider CCCS(=O)(=O)Nc1ccc(F)c(Oc2ccc3ncn(C)c(=O)c3c2C)c1C#N [Example 69] . Its measured IC50 is 0.46 nM
